protocol_notes: Pharmacokinetic studies were carried out in vivo after administration of compound at 5 mg/kg perorally in mice
Format: ADME, organism-based
Set-up: dose 5 mg/kg, route oral
test_context: mouse, po
parameter_measured: Cmax

Please report Cmax for the following compound: O=C(NCCc1c[nH]c2ccccc12)C1=Cc2ccncc2CC1 600 ng/mL

---

protocol_notes: Percent oral bioavailability was determined after administration of compound at 50 mg/kg perorally in mice
Format: ADME, organism-based
test_context: mouse, in vivo, read-out: BA
parameter_measured: bioavailability (%)
Give the value, in units of %, as a plain number.

Please report bioavailability for the following compound: O=C(NCCc1c[nH]c2ccccc12)C1=Cc2ccncc2CC1 60.4

---

protocol_notes: Half life was evaluated at 5 mg/kg of compound dose, administered perorally in mice
Format: ADME, organism-based
Set-up: dose 5 mg/kg, route oral
test_context: mouse, in vivo, po
parameter_measured: half-life
Just so you know, I need the unit written after the number.

Please report half-life for the following molecule: O=C(NCCc1c[nH]c2ccccc12)C1=Cc2ccncc2CC1 15.2 min

---

protocol_notes: Pharmacokinetic studies were carried out in vivo after administration of compound at 50 mg/kg intravenously in mice
Assay type: ADME, organism-based
Design: dose 50 mg/kg, route intravenous
test_context: mouse, iv
parameter_measured: Cmax
Just so you know, I need the unit written after the number.

Please report Cmax for the following molecule: O=C(NCCc1c[nH]c2ccccc12)C1=Cc2ccncc2CC1 57.8 µg/mL

---

protocol_notes: Pharmacokinetic studies were carried out in vivo after administration of compound at 50 mg/kg perorally in mice
Assay type: ADME, organism-based
Design: dose 50 mg/kg, route oral
test_context: mouse, po
parameter_measured: Cmax (ng/mL)
Give the value, in units of ng/mL, as a plain number.

Please report Cmax for the following compound: COc1ccccc1CNC(=O)C1=Cc2ccncc2CC1 12500

Please report Cmax for the following compound: O=C(NCCc1c[nH]c2ccccc12)C1=Cc2ccncc2CC1 15100

---

protocol_notes: Pharmacokinetic studies were carried out in vivo after administration of compound at 5 mg/kg intravenously in mice
Format: ADME, organism-based
Set-up: dose 5 mg/kg, route intravenous
test_context: mouse, iv
parameter_measured: Cmax (ng/mL)
Give the value, in units of ng/mL, as a plain number.

Please report Cmax for the following compound: COc1ccccc1CNC(=O)C1=Cc2ccncc2CC1 6940

Please report Cmax for the following compound: O=C(NCCc1c[nH]c2ccccc12)C1=Cc2ccncc2CC1 5560

---

Can you tell me half-life for the items I'm about to list?
protocol_notes: Half life was evaluated at 50 mg/kg of compound dose, administered perorally in mice
Assay type: ADME, organism-based
Set-up: dose 50 mg/kg, route oral
test_context: mouse, in vivo, po
Give the value, in units of min, as a plain number.

Please report half-life for the following compound: O=C(NCCc1c[nH]c2ccccc12)C1=Cc2ccncc2CC1 72.5

Please report half-life for the following compound: COc1ccccc1CNC(=O)C1=Cc2ccncc2CC1 42.3

---

protocol_notes: Percent oral bioavailability was determined after administration of compound at 5 mg/kg perorally in mice
Assay type: ADME, organism-based
test_context: mouse, in vivo, read-out: BA
parameter_measured: bioavailability (%)
Give the value, in units of %, as a plain number.

Please report bioavailability for the following compound: O=C(NCCc1c[nH]c2ccccc12)C1=Cc2ccncc2CC1 22.5
